Catalogue of log10 EC50 values
Molecular target: LXRβ (Homo sapiens, UniProt P55055)
Construct: Co-transfection expression plasmids, comprising full-length LXRα (pCMX-h LXRα[…] or LXRβ (pCMX-hLXRβ))
Sequence (P55055 whole entry): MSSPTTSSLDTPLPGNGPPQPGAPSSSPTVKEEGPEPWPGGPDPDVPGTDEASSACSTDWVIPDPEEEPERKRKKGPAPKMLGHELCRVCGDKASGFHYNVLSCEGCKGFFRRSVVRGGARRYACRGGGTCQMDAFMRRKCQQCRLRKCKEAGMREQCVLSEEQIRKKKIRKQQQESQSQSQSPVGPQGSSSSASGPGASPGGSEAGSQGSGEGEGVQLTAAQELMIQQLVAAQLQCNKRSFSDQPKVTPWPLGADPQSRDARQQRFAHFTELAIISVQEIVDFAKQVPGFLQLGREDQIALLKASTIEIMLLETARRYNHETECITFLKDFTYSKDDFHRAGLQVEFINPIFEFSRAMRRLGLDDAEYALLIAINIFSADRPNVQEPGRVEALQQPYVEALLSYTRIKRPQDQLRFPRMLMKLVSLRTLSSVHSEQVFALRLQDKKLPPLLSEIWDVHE
Sequence (P19793 whole entry partner): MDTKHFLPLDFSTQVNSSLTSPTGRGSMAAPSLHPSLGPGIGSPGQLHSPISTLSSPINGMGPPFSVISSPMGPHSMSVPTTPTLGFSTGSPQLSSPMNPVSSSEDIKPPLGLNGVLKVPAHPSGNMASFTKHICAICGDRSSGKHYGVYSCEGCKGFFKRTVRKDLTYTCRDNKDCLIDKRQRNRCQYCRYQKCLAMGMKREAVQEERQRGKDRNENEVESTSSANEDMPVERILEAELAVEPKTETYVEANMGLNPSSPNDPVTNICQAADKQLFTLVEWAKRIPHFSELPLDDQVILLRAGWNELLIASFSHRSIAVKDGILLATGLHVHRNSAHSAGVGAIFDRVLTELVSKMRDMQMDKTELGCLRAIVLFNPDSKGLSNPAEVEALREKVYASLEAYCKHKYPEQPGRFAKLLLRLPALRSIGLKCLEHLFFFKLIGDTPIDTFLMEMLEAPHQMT
Test: Co-transfection assay (LXRE luciferase reporter), LXRβ
Conditions: CV-1 cells transfected with pCMX-hLXRβ and LXREx1-Tk-Luciferase; 20 hours incubation
Lab note - EC50 converted to log10 from values in nM.

structure.as.smiles | tgt | measure | quantitative.readout
Cc1nc(-c2cc(-c3cccc(S(C)(=O)=O)c3)ccc2-n2cc(C(F)(F)F)nc2C)c(-c2cccnc2C)o1 | LXRβ (Homo sapiens, UniProt P55055) | log10 EC50 | 2.79
COc1cnc(-c2oc(C)nc2-c2cc(-c3cccc(S(C)(=O)=O)c3)ccc2-n2cc(C(F)(F)F)nc2C)cn1 | LXRβ (Homo sapiens, UniProt P55055) | log10 EC50 | 2.71
CCc1nc(-c2cc(-c3cc(F)c(CO)c(S(C)(=O)=O)c3)ccc2-n2cc(C(F)(F)F)nc2C)c(-c2ccc(OC(F)(F)F)cc2)o1 | LXRβ (Homo sapiens, UniProt P55055) | log10 EC50 | 1.11
Cc1nc(-c2cc(-c3cccc(S(C)(=O)=O)c3)ccc2-n2cc(C(F)(F)F)nc2C)c(-c2ccc(F)c(Cl)c2)o1 | LXRβ (Homo sapiens, UniProt P55055) | log10 EC50 | 1.79
Cc1nc(C(F)(F)F)c(Cl)n1-c1ccc(-c2cc(F)c(CO)c(S(C)(=O)=O)c2)cc1-n1nncc1-c1ccc(OC(F)(F)F)cc1 | LXRβ (Homo sapiens, UniProt P55055) | log10 EC50 | 1.60
Cc1ccc(Cc2cnnn2-c2cc(-c3cccc(S(C)(=O)=O)c3)ccc2-n2cc(C(F)(F)F)nc2C)cc1 | LXRβ (Homo sapiens, UniProt P55055) | log10 EC50 | 2.43

Q) Fill in the blank: the reported log10 EC50 of Cc1nc(C(F)(F)F)cn1-c1ccc(-c2cccc(S(C)(=O)=O)c2)cc1-c1ccnn1-c1ccc2c(c1)OC(F)(F)O2 is ____.
A) 2.06

----------
Biological target: LXRβ (Homo sapiens, UniProt P55055)
Construct: Co-transfection expression plasmids, comprising full-length LXRα (pCMX-h LXRα[…] or LXRβ (pCMX-hLXRβ)); expressed in transfected cells; host or cells: CV-1 African Green Monkey Kidney Cells
Assay: Co-transfection assay (LXRE luciferase reporter), LXRβ
Type: cell-based
Conditions: LXRβ co-transfection; relative to high control 1-(2,4-difluorobenzyl)-2-oxo-6-(4-phenoxyphenyl)-4-(trifluoromethyl)-1,2-dihydropyridine-3-carbonitrile; read-out: % Efficacy
measure: Emax (%)
Kindly answer with a numeric value in %, unit omitted.

Answered cases to consult:
compound | tgt | quantitative.readout
Cc1nc(C(F)(F)F)cn1-c1ccc(-c2ccc(CCO)c(S(C)(=O)=O)c2)cc1-n1nncc1-c1ccc(OC(F)(F)F)cc1 [Example 236] | LXRβ (Homo sapiens, UniProt P55055) | 89
Cc1nc(C(F)F)cn1-c1ccc(-c2cc(F)c(CO)c(S(C)(=O)=O)c2)cc1-c1cnnn1Cc1ccc(Cl)cc1 [Example 248] | LXRβ (Homo sapiens, UniProt P55055) | 88
Cc1nc(C(F)(F)F)cn1-c1ccc(-c2cccc(S(C)(=O)=O)c2)cc1-n1nncc1-c1ccc(Cl)c(C(F)(F)F)c1 [Example 64] | LXRβ (Homo sapiens, UniProt P55055) | 86
Cc1nc(C(F)(F)F)cn1-c1ccc(-c2cccc(S(C)(=O)=O)c2)cc1-c1oc(CCO)nc1-c1ccc(OC(F)(F)F)cc1 [Example 611] | LXRβ (Homo sapiens, UniProt P55055) | 62

Q) For LXRβ (Homo sapiens, UniProt P55055), provide Emax of CCCc1nc(-c2cc(-c3cc(F)c(CO)c(S(C)(=O)=O)c3)ccc2-n2cc(C(F)(F)F)nc2C)c(-c2ccc(OC(F)(F)F)cc2)o1 [Example 557] please.
A) 82

Q) For LXRβ (Homo sapiens, UniProt P55055), provide Emax of Cc1nc(-c2ccccc2C(F)(F)F)c(-c2cc(-c3cc(F)c(CO)c(S(C)(=O)=O)c3)ccc2-n2cc(C(F)(F)F)nc2C)o1 [Example 630] please.
A) 30

Q) For LXRβ (Homo sapiens, UniProt P55055), provide Emax of Cc1nc(C(F)(F)F)cn1-c1ccc(-c2cccc(C(C)(C)C(N)=O)c2)cc1-n1nncc1C(=O)c1ccc(Cl)cc1 [Example 139] please.
A) 71
